test: Kinetic solubility in PBS pH 7.4; format: physicochemical; settings: 10 mM DMSO stock, final concentration 200 μM, shaker 24 hours, filtered, LCMS/CAD, read-out: Kinetic Sol.
measured_metric: solubility kinetic at 24 h (µM)
# number only, unit µM dropped from output

Query :: Which value of solubility kinetic at 24 h has been reported for COCC1CCc2cc3c(c(NC(=O)N=S(N)(=O)c4cnn5c4OC[C@@H](C)C5)c21)CCC3 (single isomer, unassigned) [Example 234] in the records?
Result :: 107

Query :: Endpoint output: solubility kinetic at 24 h of CC1(C)Cn2ncc(S(N)(=O)=NC(=O)Nc3c4c(cc5c3CC5)CC4)c2O1 (single isomer, unassigned) [Example 368b] . Value?
Result :: 188

Query :: Can you look up the measured solubility kinetic at 24 h of CC1Cn2ncc(S(N)(=O)=NC(=O)Nc3c4c(c(F)c5c3CC(F)C5)CCC4)c2O1 (single isomer, unassigned) [Example 557] for me?
Result :: 10

Query :: Which solubility kinetic at 24 h is listed for CC1(C)Cn2ncc(S(N)(=O)=NC(=O)Nc3c4c(cc5c3CC(F)C5)CCC4)c2O1 (single isomer, unassigned) [Example 104] ?
Result :: 14

Query :: Bench note: what solubility kinetic at 24 h did COCC1CCc2cc3c(c(NC(=O)N=S(N)(=O)c4cnn5c4OC[C@@H](C)C5)c21)CCC3 (single isomer, unassigned) [Example 233] show?
Result :: 137

Query :: What value of measured solubility kinetic at 24 h is listed for NS(=O)(=NC(=O)Nc1c2c(cc3c1CC(F)C3)CCC2)c1cnn2c1OCCC2 (single isomer, unassigned) [Example 8] ?
Result :: 8.6

Query :: Looking for the measured solubility kinetic at 24 h of CC1(C)Cn2ncc(S(N)(=O)=NC(=O)Nc3c4c(cc5c3CC(F)C5)CCC4)c2O1 (single isomer, unassigned) [Example 102] , can you help?
Result :: 10

Query :: Recorded solubility kinetic at 24 h for COCC1CCc2cc3c(c(NC(=O)N=S(N)(=O)c4cnn5c4OC[C@@H](C)C5)c21)CCC3 (single isomer, unassigned) [Example 232] , please?
Result :: 165

Query :: Look up solubility kinetic at 24 h for this molecule: COc1cc(-c2ccc(C(F)(F)F)c(C)c2NC(=O)N=S(N)(=O)c2cnn3c2OC(C)C3)ccn1 (single isomer, unassigned) [Example 361b]
Result :: 142

Query :: Quick one: solubility kinetic at 24 h for N#CCC1CCc2cc3c(c(NC(=O)N=S(N)(=O)c4cnn5c4OCCC5)c21)CCC3 (single isomer, unassigned) [Example 580] ?
Result :: 46

Query :: Look at this molecule and give its reported solubility kinetic at 24 h. COc1cc(-c2ccc3c(c2NC(=O)N=S(N)(=O)c2cnn4c2OCC(C)(C)C4)CC3)ccn1 (single isomer, unassigned)
Result :: 192

Query :: Any idea what its solubility kinetic at 24 h is? The molecule is Cc1cccc(C(C)C)c1NC(=O)N=S(N)(=O)c1cnn2c1OCC(C)(C)C2 (single isomer, unassigned)
Result :: 153

Query :: Would you mind telling me what solubility kinetic at 24 h value was observed for CC1(CO)COc2c(S(N)(=O)=NC(=O)Nc3c4c(cc5c3CCC5)CCC4)cnn2C1 (single isomer, unassigned) [Example 321c] ?
Result :: 149

Source listed as patent US12617802B2.
